Values compiled from ChEMBL document CHEMBL1201862.

Test system: DLD-1
Assay: NCI tumour cell line growth inhibition, 48 h
Active and inactive are the calls of the source. Rule as the data show it: active = GI50 up to about 1.1 µM and inactive = higher.
metric: GI50

Task: Recorded GI50 of `Cc1cc(C)nc(NS(=O)(=O)c2ccc(NC(=O)c3cccc4c(Nc5ccc(S(=O)(=O)Nc6nc(C)cc(C)n6)cc5)c5ccccc5nc34)cc2)n1` , please.
Output: 19 µM (inactive)

Task: What GI50 value was documented for this compound, COC(=O)C1=CC(O)CCC1c1ccc(OC)cc1 (stereo not drawn) ?
Output: > 100 µM (inactive)

Task: I am curious: what GI50 value has been reported for `O=C(N/C(=C\c1ccc([N+](=O)[O-])cc1)c1nc2ccccc2[nH]1)c1ccccc1` ?
Output: > 100 µM (inactive)

Task: Give the measured GI50 of CC(Cl)(/C=C/Cl)C(Cl)/C=C/C(Cl)(CCl)CBr (stereo not drawn) .
Output: 2.47 µM (inactive)

Task: Could you tell me which GI50 is on file for `NC(=O)N=C(NCc1ccccc1)NCc1ccccc1` ?
Output: > 100 µM (inactive)

Task: Any idea what GI50 was measured for `CCCCCCCC(=O)OC[C@H](C[As](=O)(O)O)OC(=O)CCCCCCC` ?
Output: 14.1 µM (inactive)

Task: Name the recorded GI50 for `Nc1c(C(=O)N/N=C/c2ccc(Cl)cc2)sc(=S)n1-c1ccccc1` .
Output: > 100 µM (inactive)

Task: Please look up its GI50: `COc1ccc(OC)c2c(=S)c3ccccc3[nH]c12`
Output: > 100 µM (inactive)

Task: Given the compound `CCOC(=O)C1=C(C)N(Cc2ccccc2)C(C)=C(C(=O)OCC)C1c1ccccc1O` , what is its reported GI50?
Output: 27.9 µM (inactive)

Task: Record request: GI50 value, item CC(OC1CC(=O)CC2C(=O)C=CC(=O)C12)c1ccccc1 (stereo not drawn)
Output: 12.9 µM (inactive)

Task: If you can, please state the reported GI50 value of CC(=O)OCC1OC(NC(=S)N/N=C2\CC(c3ccccc3)Oc3ccccc32)C(OC(C)=O)C(OC(C)=O)C1OC(C)=O (stereo not drawn) .
Output: > 100 µM (inactive)

Task: Given O=C(CC(=O)N1N=C(N2c3ccccc3Sc3ccccc32)CC1c1ccccc1)Nc1ccc(Cl)cc1 (stereo not drawn) , state its recorded GI50.
Output: > 100 µM (inactive)

Task: Sample CC(C(=O)O)/C(=C\c1ccc2c(c1)OCO2)C(=O)O (stereo not drawn) — what was its GI50?
Output: > 100 µM (inactive)

----------
System: NCI-H23
Assay: NCI tumour cell line growth inhibition, 48 h
Active and inactive are the calls of the source. Cut-off read from the data, not from the text of the source: active = GI50 up to about 1.1 µM and inactive = higher.
Classes to choose from: Y = active, N = inactive

Task: Per the records of this test, what outcome belongs to `CN(CCN(C)C(=O)CCn1ccc(=O)[nH]c1=O)C(=O)CCn1ccc(=O)[nH]c1=O` ?
Output: N

Task: Which result was noted for this compound in the test: COc1cc2c3c(c1OC)C1(C=CC(=O)C=C1)C[C@H]3N(C)CC2 [PRONUCIFERINE]
Output: N

Task: Hello, I am checking results. What call was entered for OC12c3ccccc3C1CCCCCCCCCC21OCCCO1 (centres undefined) ?
Output: N

Task: Short answer needed: outcome of this test for CC(=O)OC1COC(n2nc(N)nc2C)C(OC(C)=O)C1OC(C)=O (centres undefined) ?
Output: N

Task: Test call for this compound, please: Cc1ccc(NC(=O)CC2Sc3ccccc3NC2=O)cc1C (centres undefined)
Output: N

Task: How was `O=C(O)c1ccc(Nc2nc3cc(C(F)(F)F)ccc3n3cccc23)cc1` classified in this test?
Output: N

Task: Fill in: this test's call for C1CCN2CC34CC(CC5CCCN(C6CCCC3N6)C54)C2C1 (centres undefined) is ___
Output: N

Task: # fetch the recorded call for Nc1nc(N)c2nc(CNc3ccc(C(=O)NC(CCC(=O)O)C(=O)O)cc3F)cnc2n1 (centres undefined) here
Output: Y

Task: I would be grateful if you could indicate the recorded call for `Cc1ccc(C(=O)c2[nH]c(NCc3ccccc3)c(C(=S)Nc3ccccc3)c2N)cc1` .
Output: N
